Tested on: Septoria tritici—SEPTTR
Method Description: Leaf Blotch of Wheat, in vivo whole plant, 24 Hour Protectant
Condition Set: Zymoseptoria tritici, 24 h, 100 ppm spray, 24 hour protectant, wheat; control of fungal infection vs untreated plants; read-out: SEPTTR in vivo 1 Day Protectant
Items are presented alongside their recorded pest or weed control at 100 ppm.

Notebook: COc1ccnc(C(=O)N[C@H]2CO[C@@H](C(C)Cc3ccc(C(C)(C)C)cc3)OC2)c1O (some centres unmarked) , pest or weed control at 100 ppm read as < 25%

Notebook: COc1ccnc(C(=O)NC2CC(C)(C)C=CC(C)C2C)c1O (centres unmarked) , pest or weed control at 100 ppm read as 25 to 74%

Notebook: COc1ccnc(C(=O)NC2CC(C)(C)C=CC=C2C)c1O (centres unmarked) , pest or weed control at 100 ppm read as 25 to 74%

====

Items are presented alongside their recorded inhibition at 25 ppm.
Test system: Rhizoctonia solani (RHIZSO)
Method Description: microbe, parasite or virus in culture
Assay type: cell-based
Condition Set: Rhizoctonia solani, read-out: RHIZSO in vitro Growth Inhibition

- Molecule: "COc1ccnc(C(=O)N[C@H]2COC(=O)[C@H](Cc3ccccc3)[C@@H](OC(=O)C(C)(C)C)[C@H](C)OC2=O)c1O"
  Experimental Value: "< 80%"
- Molecule: "COc1ccnc(C(=O)N[C@H]2COC(=O)[C@H](Cc3ccccc3)[C@@H](OC(=O)C(C)C)[C@H](C)OC2=O)c1OC(=O)c1cnc(Cl)c(Cl)c1"
  Experimental Value: "< 80%"
- Molecule: "COc1ccnc(C(=O)Nc2ccc(OCc3cccc(C(F)(F)F)c3)cc2)c1O"
  Experimental Value: "< 80%"
- Molecule: "COc1ccnc(C(=O)Nc2ccc(Oc3cccc(C(F)(F)F)n3)cc2)c1O"
  Experimental Value: "< 80%"
- Molecule: "COc1ccnc(C(=O)NCC(=O)OCCCCCc2ccccc2)c1O"
  Experimental Value: "> 80%"
- Molecule: "CC(=O)Oc1cccnc1C(=O)Nc1ccc(Oc2cccc(C(F)(F)F)c2)cc1"
  Experimental Value: "< 80%"
- Molecule: "COc1ccnc(C(=O)Nc2ccc(Oc3ccc(C(F)(F)F)cc3)nc2)c1O"
  Experimental Value: "< 80%"
- Molecule: "COc1ccnc(C(=O)NC(COC(=O)CC(C)OC(=O)C(C)C)C(=O)OC(C)C)c1O (stereo not drawn)"
  Experimental Value: "< 80%"
- Molecule: "COc1ccnc(C(=O)N[C@H]2COC(=O)[C@H](Cc3ccccc3)[C@@H](OC(C)=O)[C@H](C)OC2=O)c1O"
  Experimental Value: "< 80%"
- Molecule: "CC(NC(=O)c1nc(Br)ccc1O)c1ccc(C(F)(F)F)cc1 (stereo not drawn)"
  Experimental Value: "< 80%"

Notebook: "COc1ccnc(C(=O)Nc2ccc(Oc3ccnc(C(F)(F)F)c3)cc2)c1O" , inhibition at 25 ppm read as < 80%

Notebook: "COc1ccnc(C(=O)N[C@H]2CC[C@@H](Oc3ccc(C(F)(F)F)cc3)CC2)c1O" , inhibition at 25 ppm read as > 80%

Notebook: COc1ccnc(C(=O)N[C@@H]2CC3CC2[C@@H](C(=O)OCCc2ccccc2)[C@H]3C(=O)OCC(C)C)c1O (stereo partly drawn) , inhibition at 25 ppm read as > 80%

Notebook: "COc1ccc(C(=O)Oc2c(OC)ccnc2C(=O)N[C@H]2COC(=O)[C@H](Cc3ccccc3)[C@@H](OC(=O)C(C)C)[C@H](C)OC2=O)cc1" , inhibition at 25 ppm read as < 80%

Notebook: "O=C(Nc1ccc(Oc2cccc(C(F)(F)F)c2)cc1)c1nscc1O" , inhibition at 25 ppm read as < 80%

Where do the numbers come from? From patent US6706740B2.
